Where these numbers come from: ChEMBL document CHEMBL1152367

This section presents compounds with their documented pKi values.
- MEASUREMENT TARGET: Cannabinoid receptor 1 (Homo sapiens)
Recall that pKi is obtained by taking minus log10 of the concentration measured in molar.

// query pKi value for entry Cc1cccc(C)c1N(C(=O)c1ccccc1Cl)C(=O)C(c1ccc([N+](=O)[O-])cc1)N1CCOCC1 (centres undefined)
5.56

Now consider CCOC(=O)N1CC=C2C(C1)C1(C(=O)N(Cc3ccccc3)c3ccccc31)C(C#N)=C(N)C2(C#N)C#N (centres undefined) .
5.96

Next entry: CC(C)(C)c1ccc(C(=O)N2C(C(=O)NCc3ccccn3)CSC2c2cccc(F)c2)cc1 (centres undefined)
5.13

***
Can you look up the measured pKi of COc1cccc(N2C(C(C)=O)=NN(c3ccc(Cl)cc3)C2c2ccc(N3CCOCC3)cc2)c1 (centres undefined) for me?
6.64

One more compound: CC1CN(c2ncnc(NC(c3ccccc3)c3ccccc3)c2[N+](=O)[O-])CC(C)O1 (centres undefined)
5.93

Can you check COc1ccccc1NC(=O)C(C)Sc1nc(-c2ccc(C)cc2)nc2c1COC(C)(C)C2 (centres undefined) next?
6.58

Please give the result for CS/C(=N\S(=O)(=O)c1ccc(-n2nc(C(F)(F)F)cc2-c2cccs2)cc1)N1CCCC1 too.
6.00

Moving on to O=C(Nc1ccccc1Oc1ccccc1)c1ccc(S(=O)(=O)N2CCc3ccccc32)cc1
6.59

###

Some compounds, each annotated with its measured Ratio Ki.
- Organism: Homo sapiens
- EXPERIMENT NOTES: Selectivity ratio of Ki for human CB2 receptor to Ki for human CB1 receptor

Below: 5 compounds and their reported Ratio Ki.
I am curious: what Ratio Ki value has been reported for COc1cccc(N2C(C(C)=O)=NN(c3ccc(Cl)cc3)C2c2ccc(N3CCOCC3)cc2)c1 (centres undefined) ?
17.3

Same thing, different compound: CCN(Cc1ccccc1)C(=O)c1oc2ccc(S(=O)(=O)N3CC(C)CC(C)C3)cc2c1C (centres undefined)
33.7

// query: CCOC(=O)N1CCN(C(=O)c2cc(-c3ccccc3Cl)nn2-c2ccc(C)cc2C)CC1
3.7

Next record, please: COc1ccccc1NC(=O)C(C)Sc1nc(-c2ccc(C)cc2)nc2c1COC(C)(C)C2 (centres undefined)
> 37.9

Try this compound too: COc1ccc(C2c3cccn3-c3ccccc3N2C(=O)CN(C(=O)NC(C)(C)C)C(C)C)cc1 (centres undefined)
16.1

---
// lookup Ratio Ki for Cc1cc(C)c(OCC(=O)Nc2sc3c(c2C(=O)NC2CCS(=O)(=O)C2)CCCC3)c(C)c1 (centres undefined)
0.2

###

- MEASUREMENT TARGET: Cannabinoid receptor 1 (Homo sapiens, UniProt P21554)
- Sequence (P21554 whole entry): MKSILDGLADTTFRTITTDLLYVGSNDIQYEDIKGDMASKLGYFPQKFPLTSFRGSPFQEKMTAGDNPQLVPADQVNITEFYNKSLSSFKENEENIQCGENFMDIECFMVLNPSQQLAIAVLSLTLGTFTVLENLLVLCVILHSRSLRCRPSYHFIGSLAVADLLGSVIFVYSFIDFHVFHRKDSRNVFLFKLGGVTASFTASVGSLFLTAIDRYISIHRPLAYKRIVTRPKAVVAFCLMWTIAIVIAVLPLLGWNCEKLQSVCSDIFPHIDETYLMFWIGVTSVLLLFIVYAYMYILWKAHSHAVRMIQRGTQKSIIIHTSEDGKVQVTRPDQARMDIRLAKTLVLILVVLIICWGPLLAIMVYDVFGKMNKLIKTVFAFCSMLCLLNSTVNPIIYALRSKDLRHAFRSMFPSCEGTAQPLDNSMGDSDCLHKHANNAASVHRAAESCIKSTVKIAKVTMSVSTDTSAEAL
- EXPERIMENT NOTES: Displacement of [3H]rimonabant from human CB1 receptor expressed in HEK293 cells assessed as signal point inhibition at 10 uM by liquid scintillation counting
- Format: cell-based
REPORTED ENDPOINT: inhibition (%)
Reply with just the number (in %).

Example cases with answers are listed next.
Report inhibition for COC(=O)c1c(C)oc(C)c1S(=O)(=O)N1CCN(C2c3ccccc3-c3ccccc32)CC1 please.
87

And COc1ccccc1NC(=O)C(C)Sc1nc(-c2ccc(C)cc2)nc2c1COC(C)(C)C2 (stereo unspecified) ?
85

How about this molecule: Cc1cc(C)c(OCC(=O)Nc2sc3c(c2C(=O)NC2CCS(=O)(=O)C2)CCCC3)c(C)c1 (stereo unspecified)
94

Next molecule: COc1ccc(-c2cc(C(=O)N3CCN(C(C)=O)CC3)n(-c3cccc(C)c3)n2)c(OC)c1
77

Item: O=C(Nc1ccccc1Oc1ccccc1)c1ccc(S(=O)(=O)N2CCc3ccccc32)cc1
82

// query: CC(C)CN(CC(=O)N1CCc2sccc2C1c1ccc(F)cc1)C(=O)c1ccco1 (stereo unspecified)
89

Try this molecule too: CS/C(=N\S(=O)(=O)c1ccc(-n2nc(C(F)(F)F)cc2-c2cccs2)cc1)N1CCCC1
63

Quick one: CC(C)NC(=O)C(C)Sc1nnc2c3ccccc3n(Cc3ccccc3)c2n1 (stereo unspecified)
86

Subsequent entry: CC1CN(c2ncnc(NC(c3ccccc3)c3ccccc3)c2[N+](=O)[O-])CC(C)O1 (stereo unspecified)
67

Another molecule: COc1ccccc1N1CCN(C(=O)C(C)Sc2nc(-c3ccccc3)cc(C(F)(F)F)n2)CC1 (stereo unspecified)
80

---
Request the reported inhibition associated with Cc1ccc(C2c3cccn3-c3ccccc3N2C(=O)CN(C(=O)C2CCCC2)C2CC2)cc1 (stereo unspecified)
78
